IC50 overview
Target: EV-A71 2A^pro (Enterovirus A71, UniProt B9VUU3)
Sequence (B9VUU3 863-1012): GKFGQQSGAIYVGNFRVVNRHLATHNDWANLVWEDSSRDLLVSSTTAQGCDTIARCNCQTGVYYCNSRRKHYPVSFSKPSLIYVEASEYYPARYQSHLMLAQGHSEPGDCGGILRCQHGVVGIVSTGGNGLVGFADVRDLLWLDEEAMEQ
Experiment: FRET-based enzymatic assay
Type: biochemical
Conditions: EV-A71 2A^pro IC50, with 4 mM DTT

entry_smiles: CCN(CC)C(=S)SSC(=S)N(CC)CC
IC50: > 60 µM
//
entry_smiles: CCC[C@H](NC(=O)[C@@H]1[C@H]2CCC[C@H]2CN1C(=O)[C@@H](NC(=O)[C@@H](NC(=O)c1cnccn1)C1CCCCC1)C(C)(C)C)C(=O)C(=O)NC1CC1
IC50: 1.3 µM
//
entry_smiles: CCCCCCNC(=O)n1cc(F)c(=O)[nH]c1=O
IC50: > 60 µM
//
entry_smiles: O=c1sn(-c2cccc3ccccc23)c(=O)n1Cc1ccccc1
IC50: > 60 µM
//
entry_smiles: O=c1c2ccccc2[se]n1-c1ccccc1
IC50: > 60 µM
//
entry_smiles: CC(C)=CC[C@@H](O)C1=CC(=O)c2c(O)ccc(O)c2C1=O
IC50: > 60 µM

----------
Biological target: EV-A71 3C^pro (Enterovirus A71)
Test: FRET-based enzymatic assay
Assay type: biochemical
Details: EV-A71 3C^pro IC50, no DTT
value_type: IC50 (nM)

entry_smiles: O=c1sn(-c2cccc3ccccc23)c(=O)n1Cc1ccccc1
value_type: IC50
experimental_result: 1200
//
entry_smiles: O=c1c2ccccc2[se]n1-c1ccccc1
value_type: IC50
experimental_result: 1200
//
entry_smiles: CCCCCCNC(=O)n1cc(F)c(=O)[nH]c1=O
value_type: IC50
experimental_result: 400
//
entry_smiles: CCN(CC)C(=S)SSC(=S)N(CC)CC
value_type: IC50
experimental_result: 1000
//
entry_smiles: CC(C)=CC[C@@H](O)C1=CC(=O)c2c(O)ccc(O)c2C1=O
value_type: IC50
experimental_result: 500

----------
Assay: in vitro
Details: human, CC50 (EV-A71 CPE assay conditions), RD cells, no virus, 37 °C, no MgCl2

entry_smiles: CCN(CC)C(=S)SSC(=S)N(CC)CC
CC50 [µM]: 8.3

entry_smiles: CCCCCCNC(=O)n1cc(F)c(=O)[nH]c1=O
CC50 [µM]: 47.2

entry_smiles: O=c1sn(-c2cccc3ccccc23)c(=O)n1Cc1ccccc1
CC50 [µM]: 16.6

entry_smiles: CC(C)=CC[C@@H](O)C1=CC(=O)c2c(O)ccc(O)c2C1=O
CC50 [µM]: 0.8

entry_smiles: O=c1c2ccccc2[se]n1-c1ccccc1
CC50 [µM]: 17

----------
Biological target: EV-A71 3C^pro (Enterovirus A71)
Test: Thermal shift binding assay
Details: 4 mM DTT; 40 μM compound (shikonin 10 μM); 3 μM protease
value_type: Tm change, EV-A71 3C^pro

entry_smiles: O=c1sn(-c2cccc3ccccc23)c(=O)n1Cc1ccccc1
experimental_result: no Tm change
--
entry_smiles: CC(C)=CC[C@@H](O)C1=CC(=O)c2c(O)ccc(O)c2C1=O
experimental_result: no Tm change
--
entry_smiles: CCN(CC)C(=S)SSC(=S)N(CC)CC
experimental_result: no Tm change
--
entry_smiles: O=c1c2ccccc2[se]n1-c1ccccc1
experimental_result: no Tm change
--
entry_smiles: CCCCCCNC(=O)n1cc(F)c(=O)[nH]c1=O
experimental_result: no Tm change
